Data provenance: paper PMC7058931

# Assay Target: T1, TOP3β (DNA topoisomerase IIIβ) (Giardia lamblia WB, UniProt A8B577 1-973)
# T1 sequence: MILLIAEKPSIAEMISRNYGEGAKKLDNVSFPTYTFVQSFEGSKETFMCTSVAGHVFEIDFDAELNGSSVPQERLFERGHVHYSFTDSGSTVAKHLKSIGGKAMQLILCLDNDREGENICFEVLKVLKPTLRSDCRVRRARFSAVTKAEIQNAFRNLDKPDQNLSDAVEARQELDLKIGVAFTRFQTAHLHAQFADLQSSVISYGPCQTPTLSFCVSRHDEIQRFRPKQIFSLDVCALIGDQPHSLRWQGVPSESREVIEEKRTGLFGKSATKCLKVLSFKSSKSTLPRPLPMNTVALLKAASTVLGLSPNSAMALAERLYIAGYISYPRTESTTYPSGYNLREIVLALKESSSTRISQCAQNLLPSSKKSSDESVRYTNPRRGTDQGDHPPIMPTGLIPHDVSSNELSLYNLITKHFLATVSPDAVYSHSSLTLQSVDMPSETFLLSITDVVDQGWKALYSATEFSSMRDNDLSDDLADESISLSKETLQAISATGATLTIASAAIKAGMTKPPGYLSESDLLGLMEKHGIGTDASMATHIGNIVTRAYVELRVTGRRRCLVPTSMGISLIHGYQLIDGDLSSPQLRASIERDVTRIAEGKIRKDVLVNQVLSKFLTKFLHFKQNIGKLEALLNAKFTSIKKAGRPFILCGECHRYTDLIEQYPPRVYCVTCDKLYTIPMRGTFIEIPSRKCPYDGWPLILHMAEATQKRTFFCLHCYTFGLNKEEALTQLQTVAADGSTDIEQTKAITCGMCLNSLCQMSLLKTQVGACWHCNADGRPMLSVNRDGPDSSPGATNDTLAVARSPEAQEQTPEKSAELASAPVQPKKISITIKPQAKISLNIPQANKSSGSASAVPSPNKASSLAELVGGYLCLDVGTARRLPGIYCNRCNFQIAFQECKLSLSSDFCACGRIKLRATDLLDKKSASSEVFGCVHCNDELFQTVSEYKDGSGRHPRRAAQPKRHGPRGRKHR
# Procedure Summary: EMSA; EMSA: 0.02 pmol 32P probe, 5 ng protein, 20 µl, 0.5 µg poly(dI-dC), 15 min at room temperature, 6% acrylamide gel; buffer, salt and pH not given (cited reference)
# Conditions Used: protein: recombinant; tags: C-terminal V5 and His; label: 5'-32P
Property: binding result

Could you tell me which binding result is on file for ran-51/-20 (dsDNA) DNA 1: TAAAATAAATTAAATCGAAATTAAAACTTTAA DNA 2: TTAAAGTTTTAATTTCGATTTAATTTATTTTA ? binds

Could you tell me which binding result is on file for cwp1-90/-46 (dsDNA) DNA 1: CTGGCTAACAGTCTACAGTCTACAATTTACAGTATACAATCTACA DNA 2: TGTAGATTGTATACTGTAAATTGTAGACTGTAGACTGTTAGCCAG ? binds

Could you tell me which binding result is on file for 18S-60/-31 (dsDNA) DNA 1: CCGTGCCAGGCGGCGGCCCCCGCGCAGGGA DNA 2: TCCCTGCGCGGGGGCCGCCGCCTGGCACGG ? no binding

Could you tell me which binding result is on file for 18S-30/-1 (dsDNA) DNA 1: GGCGCCCGGCCCGCGGCGCCCGCGCCCGGC DNA 2: GCCGGGCGCGGGCGCCGCGGGCCGGGCGCC ? no binding
